experiment: Kinetic solubility of the compound in aqueous assay buffer at pH 7.7
Reported values of solubility kinetic for individual entries
property: solubility kinetic

| smiles.data | result |
| --- | --- |
| COCc1nn(Cc2ccc(Cn3ccccc3=O)cc2)cc1C(=O)NCc1c(F)ccc(OC)c1F | > 120 µg/mL |
| COc1cccc(CNC(=O)c2cn(Cc3ccc(Cn4ccccc4=O)cc3)nc2N(C)C)c1F | > 120 µg/mL |
| COCc1nn(Cc2ccc(Cn3ccccc3=O)cc2)cc1C(=O)NCc1c(Cl)ccc(OC)c1F | > 120 µg/mL |
| COCc1nn(Cc2ccc(Cn3ccccc3=O)cc2)cc1C(=O)NCc1cc(OC)ccc1F | > 120 µg/mL |
| COCc1nn(Cc2ccc(Cn3ccccc3=O)cc2)cc1C(=O)NCc1c(C#N)ccc(OC)c1F | > 120 µg/mL |

----------
test: Half life in Sprague-Dawley rat at 10 mg/kg, po and 1 mg/kg, iv measured upto 24 hrs by LC-MS analysis; type: ADME, organism-based; details: in vivo
Readings of t1/2 for the listed molecules
property: t1/2 (h)

| molecule | quantitative.result |
| --- | --- |
| COCc1nn(Cc2ccc(Cn3ccccc3=O)cc2)cc1C(=O)NCc1c(F)ccc(OC)c1F | 0.7 |
| COCc1nn(Cc2ccc(Cn3ccccc3=O)cc2)cc1C(=O)NCc1nccc(OC)c1F [SEBETRALSTAT] | 1 |
| COCc1nn(Cc2ccc(Cn3ccccc3=O)cc2)cc1C(=O)NCc1c(C#N)ccc(OC)c1F | 1.1 |
| COc1ccnc(CNC(=O)c2cn(Cc3ccc(Cn4ccccc4=O)cc3)nc2C(F)(F)F)c1F | 1.1 |
| COCc1nn(Cc2ccc(Cn3ccccc3=O)cc2)cc1C(=O)NCc1nccc(OC)c1C | 1 |

----------
molecular target: Plasma kallikrein (Homo sapiens, UniProt P03952); assay: Inhibition of human plasma kallikrein using H-D-Pro-Phe-Arg-AFC as flurogenic substrate preincubated for 5 mins followed by substrate addition by fluorometer analysis; format: cell-free
Sequence (P03952 20-390 limits assumed): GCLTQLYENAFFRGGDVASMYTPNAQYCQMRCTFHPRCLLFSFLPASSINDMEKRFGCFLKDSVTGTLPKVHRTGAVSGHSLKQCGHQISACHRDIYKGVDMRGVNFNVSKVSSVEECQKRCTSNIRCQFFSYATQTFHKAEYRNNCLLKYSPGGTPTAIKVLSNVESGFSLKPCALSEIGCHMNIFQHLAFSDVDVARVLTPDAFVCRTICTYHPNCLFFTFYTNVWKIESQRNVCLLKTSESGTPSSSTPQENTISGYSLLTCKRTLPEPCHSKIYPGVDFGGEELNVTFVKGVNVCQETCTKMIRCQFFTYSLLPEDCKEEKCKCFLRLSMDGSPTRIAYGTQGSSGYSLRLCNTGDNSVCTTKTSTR
Sequence (P03952 391-638 limits assumed): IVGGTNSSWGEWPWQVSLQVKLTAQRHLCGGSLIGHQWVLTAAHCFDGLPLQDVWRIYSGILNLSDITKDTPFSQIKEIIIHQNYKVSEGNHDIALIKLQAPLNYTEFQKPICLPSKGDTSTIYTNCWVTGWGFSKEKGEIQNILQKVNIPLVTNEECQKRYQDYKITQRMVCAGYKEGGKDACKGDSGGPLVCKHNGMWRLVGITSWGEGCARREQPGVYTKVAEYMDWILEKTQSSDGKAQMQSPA
pIC50: −log10 of the molar value.
Outcome label depends on pIC50 relative to 7: at/above gives Yes, below gives No.

| smiles.data | assigned.category |
| --- | --- |
| Cc1cc(C(=O)NCc2ccc(CN)cc2)c(C)n1Cc1cccc(-c2cccnc2)n1 | No |
| O=C(NCc1c(F)cccc1C(F)(F)F)c1cnn(Cc2ccc(Cn3ccccc3=O)cc2)c1 | Yes |
| COCc1nn(Cc2ccc(Cn3ccccc3=O)cc2)cc1C(=O)NCc1nc(C)ccc1F | No |
| COCc1nn(Cc2ccc(Cn3ccccc3=O)cc2)cc1C(=O)NCc1nccc(OC)c1C | Yes |
| Cc1cc(C(=O)NCc2ccc(CN)cc2)c(C)n1CCCc1ccccc1 | No |
| Cc1cc(C(=O)NCc2ccc(CN)cc2)c(C)n1CCc1ccccc1 | No |
| Cc1cc(C(=O)NCc2ccc(CN)cc2)c(C)n1Cc1ccc(-c2ccccc2)cc1 | No |

----------
assay: Metabolic stability in human liver microsomes assessed as intrinsic clearance per mg of protein measured upto 60 mins in presence of NADPH regenerating system by LC-MS/MS analysis; type: ADME, Microsome; conditions: liver microsomes, read-out: CLH
property: microsomal CLint (µL/min/mg)

| smiles.data | property | quantitative.result |
| --- | --- | --- |
| Nc1cccc2cc(CNC(=O)c3cnn(Cc4ccc(Cn5ccccc5=O)cc4)c3)ccc12 | microsomal CLint | 37 |
